The measurements presented in this section are drawn from paper PMC2518627.

Give pIC50 for every item shown.
target: NAADP binding protein from sea urchin (L. pictus) egg homogenate; test: NAADP radioreceptor binding assay (displacement of [32P]NAADP); conditions: read-out: IC50 (displacement of [32P]NAADP binding); 1% sea urchin egg homogenate, 25 °C
Entry type: numeric. Quantity: pIC50, the -log10 of concentration in molar units.

"NC(=O)C1=CN([C@@H]2O[C@H](COP(=O)(O)OP(=O)(O)OC[C@H]3O[C@@H](n4cnc5c(N)ncnc54)[C@H](OP(=O)(O)O)[C@@H]3O)[C@@H](O)[C@H]2O)C=CC1" has a reported pIC50 of 5.20

Query Nc1ncnc2c1ncn2[C@@H]1O[C@H](COP(=O)(O)OP(=O)(O)OC[C@H]2O[C@@H]([n+]3cccc(C(=O)O)c3)[C@H](O)[C@@H]2O)[C@@H](O)[C@H]1O [NAAD, nicotinic acid adenine dinucleotide] yields pIC50 of 4.29

pIC50 in this record for "N=c1c2ncn3c2ncn1[C@@H]1O[C@H](COP(=O)(O)OP(=O)(O)OC[C@H]2O[C@@H]3[C@H](O)[C@@H]2O)[C@@H](O)[C@H]1O" : 5.60
